Tested on: HepG2
Experiment: cytotoxicity call (relative viability < 0.9)
Details: 10 µM
The campaign covered roughly 39,000 compounds. About 3,300 (8.5%) were called active. Only a selection was taken, and actives are over-represented in it overall.
Your response should consist of one outcome taken from active, inactive

q: Dear colleague, could you share the recorded outcome for "COc1ccc(CN(C)C[C@H]2Oc3ccc(NC(=O)CCCCCC(=O)Nc4ccccc4N)cc3CC(=O)N([C@@H](C)CO)C[C@H]2C)cc1" when you have a moment?
a: active

q: Dear colleague, could you share the recorded outcome for "C[C@@H]1CCCCO[C@H](CN(C)C(=O)Nc2ccc(C(F)(F)F)cc2)[C@H](C)CN([C@H](C)CO)C(=O)c2cc(NC(=O)Nc3ccccc3)ccc2O1" when you have a moment?
a: inactive

q: Dear colleague, could you share the recorded outcome for "COc1ccc2c3c([nH]c2c1)[C@@H](CO)N(C[C@]13CCN(CC1)C(=O)CN(C)C)S(=O)(=O)C" when you have a moment?
a: inactive

q: Dear colleague, could you share the recorded outcome for "C[C@H](CO)N1C[C@H](C)[C@H](CN(C)Cc2ccc(Oc3ccccc3)cc2)Oc2ccc(NC(=O)CCCCCC(=O)Nc3ccccc3N)cc2CC1=O" when you have a moment?
a: inactive

q: Dear colleague, could you share the recorded outcome for "C[C@H]1CN([C@@H](C)CO)C(=O)Cc2cc(NC(=O)CCCCCC(=O)Nc3ccccc3N)ccc2O[C@H]1CN(C)Cc1ccc(Oc2ccccc2)cc1" when you have a moment?
a: inactive

q: Dear colleague, could you share the recorded outcome for "C[C@H]1CN([C@@H](C)CO)C(=O)c2cc(NC(=O)Cn3cnnn3)ccc2O[C@@H]1CN(C)S(=O)(=O)c1cn(C)cn1" when you have a moment?
a: inactive

q: Dear colleague, could you share the recorded outcome for "C[C@@H]1CN([C@H](C)CO)C(=O)Cc2cc(NC(=O)CCCCCC(=O)Nc3ccccc3N)ccc2O[C@H]1CN(C)Cc1ccc(Oc2ccccc2)cc1" when you have a moment?
a: inactive

====

Tested on: HepG2
Test: cytotoxicity call (relative viability < 0.9)
Details: 10 µM
The campaign covered roughly 39,000 compounds. About 3,300 (8.5%) were called active. The full list was thinned out, with actives kept by preference.
Your response should consist of one outcome taken from yes (1) = active, no (0) = inactive

q: Dear colleague, could you share the recorded outcome for O=C(NC(Cc1cc(=O)[nH]c2ccccc12)C(=O)O)c1ccc(Cl)cc1 (configuration not stated) when you have a moment?
a: yes (1)

q: Dear colleague, could you share the recorded outcome for "COc1ccc(CN(C)C[C@@H]2Oc3ccc(NS(C)(=O)=O)cc3CC(=O)N([C@H](C)CO)C[C@@H]2C)cc1" when you have a moment?
a: no (0)

q: Dear colleague, could you share the recorded outcome for "Cc1cc(C)cc(C(=O)N(C)[C@H](Cc2ccc(-c3ccccc3)cc2)C(=O)N[C@@H](Cc2c[nH]c3ccccc23)C(=O)O)c1" when you have a moment?
a: no (0)

q: Dear colleague, could you share the recorded outcome for "NCCCC[C@@H](N)C(=O)N[C@@H](Cc1c[nH]c2ccccc12)C(=O)N[C@@H](CCCCN)C(=O)O" when you have a moment?
a: no (0)

q: Dear colleague, could you share the recorded outcome for "CCCNC(=O)N1C[C@]2(CCN(CC2)S(=O)(=O)c2cccc(c2)OC)c2c(n(c3cc(ccc23)OC)C)[C@H]1CO" when you have a moment?
a: no (0)

q: Dear colleague, could you share the recorded outcome for "Cn1c(=O)n2n(c1=O)[C@H](C1CC1)C=C1CN3[C@@H]([C@H](Cc4ccccc4)OC(=O)[C@@H]3Cc3ccc(-n4cc(CCC(=O)NO)nn4)cc3)[C@@H]12" when you have a moment?
a: no (0)

q: Dear colleague, could you share the recorded outcome for "C[C@@H]1CN([C@H](C)CO)C(=O)Cc2cc(NC(=O)Nc3cccc4ccccc34)ccc2O[C@H]1CN(C)C(=O)Nc1ccc(C(F)(F)F)cc1" when you have a moment?
a: no (0)

====

System: HepG2
Experiment: cytotoxicity call (relative viability < 0.9)
Settings: 10 µM
In all, about 39,000 compounds went through this assay and about 3,300 (8.5%) were called active. The list comes from a sample in which actives are over-represented; it also holds close analogues and randomly drawn compounds.
Your response should consist of one outcome taken from active, inactive

q: Dear colleague, could you share the recorded outcome for "CCCN(C)C[C@@H]1OCCCC[C@@H](C)Oc2ccc(NC(=O)Nc3c(C)noc3C)cc2C(=O)N([C@H](C)CO)C[C@@H]1C" when you have a moment?
a: inactive

q: Dear colleague, could you share the recorded outcome for "C[C@H]1CN([C@@H](C)CO)C(=O)Cc2cc(NC(=O)CCCCCC(=O)Nc3ccccc3N)ccc2O[C@H]1CN(C)C(=O)Nc1cccc2ccccc12" when you have a moment?
a: inactive

q: Dear colleague, could you share the recorded outcome for "Cc1ccc(-c2cnc3c(c2)C(=O)N([C@H](C)CO)C[C@H](C)[C@@H](CN(C)C(=O)Cc2ccncc2)O3)cc1" when you have a moment?
a: inactive

q: Dear colleague, could you share the recorded outcome for "C[C@@H]1CN([C@H](C)CO)C(=O)c2cccc(NC(=O)C3CCOCC3)c2O[C@@H]1CN(C)S(=O)(=O)c1ccc(Cl)cc1" when you have a moment?
a: inactive

q: Dear colleague, could you share the recorded outcome for "COc1ccc(NC(=O)Nc2cccc3c2O[C@H](CN(C)C(=O)Nc2cccc4ccccc24)[C@H](C)CN([C@H](C)CO)C3=O)cc1" when you have a moment?
a: active

q: Dear colleague, could you share the recorded outcome for "C[C@H](CO)N1C[C@H](C)[C@H](CN(C)C(=O)Nc2ccc(F)cc2)Oc2c(NC(=O)Nc3cccc4ccccc34)cccc2C1=O" when you have a moment?
a: active

q: Dear colleague, could you share the recorded outcome for "Cn1c(=O)[nH]c(=O)c2c1ncn2CCNCc1ccco1" when you have a moment?
a: inactive

====

System: HepG2
Assay: cytotoxicity call (relative viability < 0.9)
Settings: 10 µM
The whole screen tested about 39,000 compounds, of which about 3,300 (8.5%) were called active. The sample holds actives, similar compounds and a random draw of the others, so the mix is not that of the screen.
ENDPOINT LABEL: cytotoxicity call

• C[C@@H]1CN([C@H](C)CO)C(=O)c2cc(NC(=O)CCCCCC(=O)Nc3ccccc3N)ccc2O[C@@H]1CN(C)Cc1ccc(C(F)(F)F)cc1 = inactive
• C[C@@H]1CN([C@@H](C)CO)C(=O)c2cc(NC(=O)CCCCCC(=O)Nc3ccccc3N)ccc2O[C@@H]1CN(C)Cc1ccc(C(F)(F)F)cc1 = inactive
• COc1ccc(S(=O)(=O)Nc2cccc3c2O[C@@H](CN(C)Cc2ccc(-c4ccccc4)cc2)[C@@H](C)CN([C@@H](C)CO)C3=O)cc1 = inactive

====

Tested on: HepG2
Test: cytotoxicity call (relative viability < 0.9)
Settings: 10 µM
In all, about 39,000 compounds went through this assay and about 3,300 (8.5%) were called active. The entries come from a sample that favours actives as a whole.
ENDPOINT LABEL: cytotoxicity call

• C[C@@H]1CCCCO[C@H](CN(C)Cc2ccc3c(c2)OCO3)[C@@H](C)CN([C@@H](C)CO)C(=O)c2cc(NS(=O)(=O)c3ccccc3)ccc2O1 = inactive
• Cc1noc(C)c1NC(=O)Nc1ccc2c(c1)C(=O)N([C@H](C)CO)C[C@@H](C)[C@H](CN(C)Cc1ccncc1)OCCCC[C@H](C)O2 = inactive
• C[C@H]1CCCCO[C@@H](CN(C)C(=O)Nc2ccc3c(c2)OCO3)[C@@H](C)CN([C@@H](C)CO)C(=O)c2cc(NC(=O)Nc3ccc(F)cc3)ccc2O1 = inactive

====

Tested on: HepG2
Assay: cytotoxicity call (relative viability < 0.9)
Conditions: 10 µM
Screen size: about 39,000 compounds; about 3,300 (8.5%) were called active. The full list was thinned out, with actives kept by preference.
ENDPOINT LABEL: cytotoxicity call

Consider the worked cases shown below.
- CC(C)N1C[C@H](C)[C@@H](CN(C)Cc2ccc(Cl)c(Cl)c2)Oc2c(cccc2-c2nnc(-c3ccncc3)o2)C1=O: inactive
- C=CCNC(=O)[C@H]1[C@@H]2C(=O)O[C@@H](c3ccccc3)[C@@H](c3ccccc3)N2[C@@H](c2ccc(OCCO)cc2)[C@]12C(=O)N(C(=O)OCCOC)c1ccc(C#CC3(O)CCCCCC3)cc12: inactive
- COCCOC(=O)N1C(=O)[C@@]2(c3cc(C#CC4(O)CCCCCC4)ccc31)[C@H](c1ccc(OCCO)cc1)N1[C@H](c3ccccc3)[C@H](c3ccccc3)OC(=O)[C@H]1[C@@H]2C(=O)N1CCCCCCC1: active
- CS(=O)(=O)CCNCc1nc(-c2ccc3ncnc(Nc4ccc(OCc5cccc(F)c5)c(Cl)c4)c3c2)cs1: inactive

Could you now look at the following compound, please?
q: Bench note: what cytotoxicity call did "Cc1ccccc1S(=O)(=O)N1C[C@@H](O)COC[C@H]2O[C@@H](CC(=O)N3CCC(Cc4ccccc4)CC3)CC[C@@H]21" show?
a: inactive
